- Measurement Target: T1, HER3-ECD-Fc (human, UniProt P21860 20-643, limits assumed)
- T1 construct: extracellular domain; also called HER3-FC; HER3-IgG
- Measurement Protocol: direct phage ELISA, proteins coated at 2 µg/ml, phage-Fab supernatant, OD450;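 further: specificity test of dual-activity clones, with binding assessed across an antigen panel to check whether each recognises only its cognate target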
Readout Name: binding result

Binder	Test Result
D1.5 (phage-displayed Fab clone) (Fab, V domains shown) VH: EVQLVESGGGLVQPGGSLRLSCAASGFTFTGNWIHWVRQAPGKGLEWVGEISPSGGYTDYADSVKGRFTISADTSKNTAYLQMNSLRAEDTAVYYCARESRVSYEAAMDYWGQGTLVTVSS VL: DIQMTQSPSSLSASVGDRVTITCRASQDVSTAVAWYQQKPGKAPKLLIYSASFLYSGVPSRFSGSGSGTDFTLTISSLQPEDFATYYCQQSYPTPYTFGQGTKVEIKR	no binding
D1.5-201 (phage-displayed Fab clone) (Fab, V domains shown, EGFR/HER2 dual-specific clone from the D1.5 light chain library) VH: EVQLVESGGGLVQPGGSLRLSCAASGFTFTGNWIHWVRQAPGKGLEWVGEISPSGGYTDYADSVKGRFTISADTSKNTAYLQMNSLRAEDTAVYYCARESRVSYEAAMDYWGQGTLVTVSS VL: DIQMTQSPSSLSASVGDRVTITCRASQAVWGGYIAPVAWYQQKPGKAPKLLIYDGSYLYSGVPSRFSGSGSGTDFTLTISSLQPEDFATYYCQQRLPTPYTFGQGTKVEIKR	no binding
D1.5-115 (phage-displayed Fab clone) (Fab, V domains shown, EGFR/HER3 clone) VH: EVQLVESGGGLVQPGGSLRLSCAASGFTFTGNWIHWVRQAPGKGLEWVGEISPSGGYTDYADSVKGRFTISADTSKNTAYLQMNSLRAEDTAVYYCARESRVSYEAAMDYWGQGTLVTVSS VL: DIQMTQSPSSLSASVGDRVTITCRASQEIFPDVAWYQQKPGKAPKLLIYSASSLYSGVPSRFSGSGSGTDFTLTISSLQPEDFATYYCQQAAPTPYTFGQGTKVEIKR	binds
